The measurements presented in this section are drawn from PubChem BioAssay (Tox21).

assay: qHTS assay to identify small molecule agonists of the NFkB signaling pathway (AID 1159509); conditions: NFkB-bla ME-180 cells, beta-lactamase FRET ratio, 5 h; series mostly up to 61 µM; note: % is set by controls: 0 for no effect and ±100 for the full control effect
Inconclusive results are not listed. The source made the active and inactive calls. Calls come from the whole dose curve; as a rule, active = well fitted curve in the direction sought with a large enough effect in the signal ratio in the repeat runs (not every such curve was filed as active); inconclusive = weak or mixed curves, or a change in a side signal; inactive = no such curve, though single readings can be large or run the other way; the % refers to the signal ratio.
property: activation

>>> val("O=C(/N=N/C(=O)OCc1ccccc1)OCc1ccccc1")
"inactive"
>>> val("CC(=O)/C=C/C1C(C)=CCC(C)C1(C)C (stereo unspecified)")
"inactive"
>>> val("CCOc1cc(NC(C)=O)ccc1C(=O)OC")
"inactive"
>>> val("COc1ccc2c(c1)C(=O)N(CCc1ccc(S(=O)(=O)NC(=O)NC3CCCCC3)cc1)C(=O)C2(C)C")
"inactive"
>>> val("CC(C)(C)OC(=O)c1ccc(O)cc1")
"inactive"
>>> val("CC/C=C\\CC1=C(C)CCC1=O")
"inactive"

---

assay: qHTS assay for small molecule activators of the heat shock response signaling pathway (AID 743210); conditions: HeLa HSE-bla reporter, beta-lactamase ratio, 5 h; series mostly up to 62.6 µM;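 note: HeLa cells with beta-lactamase reporter driven by heat shock elements; % is set by controls: 0 for no effect and ±100 for the full control effect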
Records with an inconclusive call do not appear. The source made the active and inactive calls. Calls come from the whole dose curve; as a rule, active = well fitted activation curve with a large enough effect in the signal ratio in the repeat runs, with a control signal flat (not every such curve was filed as active); inconclusive = weak or mixed curves; inactive = flat fitted curve, though single readings scatter; the % refers to the signal ratio.
property: activation

>>> val("Nc1ccc(S(=O)(=O)Nc2ccc(Cl)nn2)cc1")
"inactive"
>>> val("Cc1cc2cc3c(C)cc(=O)oc3c(C)c2o1")
"inactive"
>>> val("C=C(C)C(=O)OCCN(CC)CC")
"inactive"

---

test: qHTS RealTime-Glo MT Cell Viability Assay in HEK293 cells - 32 hour (AID 1224868); details: RealTime-Glo luminescence; series mostly up to 76.8 µM; note: top concentration of the series differs between compounds; % is set by controls: 0 for no effect and ±100 for the full control effect; nearly all actives have a fitted effect of over 50% in size
Inconclusive results are not listed. Activity calls are given as the source filed them. Calls come from the whole dose curve; as a rule, active = well fitted cell-killing curve with a large enough effect in the repeat runs; inconclusive = weak or mixed curves, or effect the other way; inactive = flat fitted curve, though single readings scatter.
property: activity change, negative = cytotoxic

>>> val("Cc1ccsc1/C=C/C1=NCCCN1C")
"inactive"
>>> val("CNC(=O)[C@H]1O[C@@H](n2cnc3c(NCc4cc(Cl)ccc4OCc4cc(C)no4)ncnc32)[C@H](O)[C@@H]1N")
"inactive"
>>> val("COP(=O)(OC)OC(c1ccc(Cl)cc1)P(=O)(OC)OC (stereo unspecified)")
"inactive"
>>> val("C[C@H](N)[C@H](O)c1cccc(O)c1")
"inactive"
>>> val("C=C(C)C(=O)OCC(C)(C)COC(=O)C(=C)C")
"inactive"
>>> val("CC(=O)NCCCCCC(=O)O")
"inactive"
>>> val("On1nnc2ccccc21")
"inactive"
>>> val("COC(=O)CCc1ccc(OCC(O)CNC(C)C)cc1 (stereo unspecified)")
"inactive"
>>> val("O=C(O)c1cc(Br)c(O)c(Br)c1")
"inactive"
>>> val("CN(CCOc1ccc(NS(C)(=O)=O)cc1)CCc1ccc(NS(C)(=O)=O)cc1")
"inactive"
>>> val("CCN1CCc2nc(N)oc2CC1")
"inactive"
>>> val("OCCCCC(O)CO (stereo unspecified)")
"inactive"
>>> val("COC(=O)c1ccccc1C(=O)c1ccc(OCCN2CCCCC2)cc1")
"inactive"
>>> val("C=C1CC/C=C(\\C)CC[C@@H]2[C@@H]1CC2(C)C")
"inactive"
>>> val("Nc1ccc(S(=O)(=O)Nc2ccc(Cl)nn2)cc1")
"inactive"
>>> val("COC(=O)CCCCCCCC(=O)OC")
"inactive"
>>> val("N[C@@H](CCC(=O)Nc1ccc([N+](=O)[O-])cc1)C(=O)O")
"inactive"
>>> val("CC(=O)OC(C)OC(=O)C(C)c1ccc(-c2ccccc2)c(F)c1 (stereo unspecified)")
"inactive"
>>> val("O=C1CC(c2ccc(Cl)cc2)CC(=O)N1")
"inactive"
>>> val("CN1CCN(CC(=O)N2c3ccccc3C(=O)Nc3cccnc32)CC1")
"5.96% [at 6.97 µM] (inactive)"
>>> val("COc1cc2c(cc1OC)[C@@H]1CC(=O)[C@@H](CC(C)C)CN1CC2")
"inactive"
>>> val("Brc1ccc(-c2ccccc2)cc1")
"inactive"
>>> val("CCOC(=O)[C@H](CCc1ccccc1)N[C@@H](C)C(=O)N1C(=O)N(C)C[C@H]1C(=O)O")
"inactive"
>>> val("BrCc1cccc(Oc2ccccc2)c1")
"inactive"
>>> val("O=C(O)Cc1ccc(Cl)cc1Cl")
"inactive"
>>> val("CCOC(=O)/C=C/c1ccccc1")
"inactive"

---

assay: qHTS assay for small molecule agonists of the p53 signaling pathway (AID 651631); details: HCT-116 p53RE-bla reporter, beta-lactamase FRET ratio, 16 h; series mostly up to 73.3 µM; note: % is set by controls: 0 for no effect and ±100 for the full control effect; nearly all actives have a fitted effect of over 15% in size
Records with an inconclusive call do not appear. Active and inactive are the calls of the source. Calls follow the shape of the full dose curve.
property: activation

>>> val("c1ccc2nccnc2c1")
"inactive"
>>> val("Cc1ccc(C=O)cc1C")
"inactive"
>>> val("CC(=O)NCc1c(I)c(NC(C)=O)c(I)c(C(=O)O)c1I")
"inactive"
>>> val("CCCCCCOC(=O)CC")
"inactive"
>>> val("COC(=O)[C@@H]1[C@H]2C[C@H]3c4[nH]c5ccccc5c4CCN3C[C@@H]2CC[C@@H]1O")
"inactive"
>>> val("OCCN(CCO)c1cccc(Cl)c1")
"inactive"
>>> val("O=C(NCC(O)CO)c1c(I)c(C(=O)NCC(O)CO)c(I)c(N(CCO)C(=O)CO)c1I (stereo not given)")
"inactive"
>>> val("On1nnc2ccccc21")
"inactive"
>>> val("CCOC(=O)c1ccc(OC(=O)CCCCCN=C(N)N)cc1")
"inactive"
>>> val("CC(C)(C)NC(N)=O")
"inactive"
>>> val("CCCCCCCCCC(C)=O")
"inactive"
>>> val("CCCCN")
"inactive"
>>> val("CCCCCCCCC1CCC(=O)O1 (stereo not given)")
"inactive"
>>> val("CN=C(NC#N)Nc1ccc(C2=NNC(=O)CC2C)cc1 (stereo not given)")
"inactive"
>>> val("CC(S)C(=O)NCC(=O)O (stereo not given)")
"inactive"

---

Target: Glucocorticoid receptor (Homo sapiens) (UniProt P04150)
Sequence (P04150 whole entry, looked up): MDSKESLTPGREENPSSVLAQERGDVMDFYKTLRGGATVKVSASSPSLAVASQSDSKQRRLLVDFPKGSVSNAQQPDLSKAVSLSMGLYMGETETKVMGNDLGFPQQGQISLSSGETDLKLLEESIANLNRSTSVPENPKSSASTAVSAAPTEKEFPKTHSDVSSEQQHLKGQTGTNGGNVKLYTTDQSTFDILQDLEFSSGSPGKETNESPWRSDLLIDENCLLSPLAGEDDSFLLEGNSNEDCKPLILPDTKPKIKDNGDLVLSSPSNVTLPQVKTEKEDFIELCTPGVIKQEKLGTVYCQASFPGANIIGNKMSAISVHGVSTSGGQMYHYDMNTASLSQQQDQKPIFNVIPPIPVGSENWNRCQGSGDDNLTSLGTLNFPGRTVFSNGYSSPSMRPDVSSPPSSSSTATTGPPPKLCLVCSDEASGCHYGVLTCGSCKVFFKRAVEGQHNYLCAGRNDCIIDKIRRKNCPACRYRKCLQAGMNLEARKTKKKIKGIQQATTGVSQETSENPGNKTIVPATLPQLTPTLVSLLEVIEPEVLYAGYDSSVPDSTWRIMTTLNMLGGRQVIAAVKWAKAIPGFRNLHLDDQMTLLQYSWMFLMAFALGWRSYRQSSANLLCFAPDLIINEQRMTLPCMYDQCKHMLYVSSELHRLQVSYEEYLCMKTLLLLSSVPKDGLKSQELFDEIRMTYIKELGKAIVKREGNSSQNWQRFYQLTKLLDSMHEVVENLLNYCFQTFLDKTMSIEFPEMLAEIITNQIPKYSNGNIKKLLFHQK
Assay: qHTS assay to identify small molecule agonists of the glucocorticoid receptor (GR) signaling pathway (AID 720691); for activation: % is set by controls: 0 for no effect and ±100 for the full control effect
Conditions: GR-bla HeLa, beta-lactamase reporter ratio, 18 h; series mostly up to 62.4 µM
Excerpt: U.S. Tox21 Program National Center for Advancing Translational Sciences [NCATS] NIH Chemical Genomics Center [NCGC] U.S. Environmental Protection Agency [EPA] National Institutes of Environmental Health Sciences [NIEHS] National Toxicology Program [NTP] U.S. Food and Drug Administration [FDA] […] The activation of the reporter gene under culture conditions can be detected by fluorescence intensity. […]
Inconclusive results are not listed. The source made the active and inactive calls. Calls follow the shape of the dose curve; as a rule, active = well fitted activation curve with a large enough effect in the signal ratio in the repeat runs (not every such curve was filed as active); inconclusive = weak or mixed curves, or effect the other way; inactive = no such curve, though single readings can be large or run the other way; the % refers to the signal ratio.
Possible outcomes: true (1) = active, false (0) = inactive

>>> answer_label("CO[C@@H]1[C@@H](OC(N)=O)[C@@H](O)[C@H](Oc2ccc3c(O)c(NC(=O)c4ccc(O)c(CC=C(C)C)c4)c(=O)oc3c2C)OC1(C)C")
"false (0)"
>>> answer_label("C[C@@H]1O[C@@H](O[C@@H]2[C@@H](O)[C@H](OCCc3ccc(O)c(O)c3)O[C@H](CO[C@@H]3O[C@H](CO)[C@@H](O)[C@H](O)[C@H]3O)[C@H]2OC(=O)/C=C/c2ccc(O)c(O)c2)[C@H](O)[C@H](O)[C@H]1O")
"false (0)"
>>> answer_label("NS(=O)(=O)c1ccc(NC(=O)CCC(=O)O)cc1")
"false (0)"
>>> answer_label("CC(C)NCC(O)COc1cccc2[nH]ccc12 (stereo not drawn)")
"false (0)"
>>> answer_label("CN(C)CCOCCO")
"false (0)"
>>> answer_label("Cc1ccc2c(c1)OCC(=O)CO2")
"false (0)"
>>> answer_label("CCCCCCCCC1CCC(=O)O1 (stereo not drawn)")
"true (1)"
>>> answer_label("Brc1ccc(-c2ccccc2)cc1")
"false (0)"
>>> answer_label("Cc1cccc(C)c1NC(=O)c1ccccc1C(=O)O")
"false (0)"
>>> answer_label("O=C1c2ccccc2C(=O)N1CCl")
"false (0)"
>>> answer_label("Nc1ncnc(Nc2ccccc2)n1")
"false (0)"
>>> answer_label("O=C(CCNNC(=O)c1ccncc1)NCc1ccccc1")
"false (0)"
>>> answer_label("O=C(O)Cc1cn(-c2ccccc2)nc1-c1ccc(Cl)cc1")
"false (0)"
>>> answer_label("CC[C@H](C)C(=O)O[C@H]1C[C@H](O)C=C2C=C[C@H](C)[C@H](CC[C@@H](O)C[C@@H](O)CC(=O)O)[C@H]21")
"false (0)"
>>> answer_label("CC(=O)CCCCn1c(=O)c2c(ncn2C)n(C)c1=O")
"false (0)"
>>> answer_label("O=C(Nc1ccc(Cl)c(Cl)c1)C1CC1")
"false (0)"
>>> answer_label("CC(C)(C)NC(N)=O")
"false (0)"
>>> answer_label("Cc1ccccc1OCC(O)CO (stereo not drawn)")
"false (0)"
>>> answer_label("CN(CCOc1ccc(NS(C)(=O)=O)cc1)CCc1ccc(NS(C)(=O)=O)cc1")
"true (1)"
>>> answer_label("CCCCNc1ccc(C(=O)OCCN(C)C)cc1")
"false (0)"
>>> answer_label("O=C1O[C@@H]2[C@@H](O)[C@H](O)O[C@@H]2[C@H]1O")
"false (0)"
>>> answer_label("CCCCN")
"false (0)"
>>> answer_label("Cc1c(I)c(=O)n(-c2ccccc2)n1C")
"false (0)"
>>> answer_label("COP(=O)(OC)OC(c1ccc(Cl)cc1)P(=O)(OC)OC (stereo not drawn)")
"false (0)"
>>> answer_label("O=C1c2ccccc2C(=O)c2cc(S(=O)(=O)O)ccc21")
"false (0)"
>>> answer_label("ClCCCl")
"false (0)"
>>> answer_label("CC(C)(C)OC(=O)c1ccc(O)cc1")
"false (0)"
>>> answer_label("C=C(C)C(=O)OCCNC(C)(C)C")
"false (0)"
>>> answer_label("CC(CN)CC(C)(C)CCN (stereo not drawn)")
"false (0)"
>>> answer_label("CC(=O)/C=C/C1C(C)=CCC(C)C1(C)C (stereo not drawn)")
"false (0)"
>>> answer_label("O=Cc1ccc(Cl)c(Cl)c1")
"false (0)"
>>> answer_label("CCCCCCOC(=O)CC")
"false (0)"
>>> answer_label("CC(C)=CCOC(=O)c1ccccc1")
"false (0)"
>>> answer_label("CC(C)CC(=O)O")
"false (0)"
>>> answer_label("O=C(OCc1ccccc1)C(=O)OCc1ccccc1")
"false (0)"
>>> answer_label("COc1cc(N)ccc1C")
"false (0)"
>>> answer_label("CCNC(=O)C1CC(C)CCC1C(C)C (stereo not drawn)")
"false (0)"
>>> answer_label("CN1C(C)(C)CCCC1(C)C")
"false (0)"
>>> answer_label("Nc1cccc(O)c1")
"false (0)"
>>> answer_label("Cc1ccccc1N=O")
"false (0)"
>>> answer_label("C=C(C)C(=O)OCCN(CC)CC")
"false (0)"
>>> answer_label("CCCCCCCCSCC")
"false (0)"
>>> answer_label("C[C@@H](Oc1ccc(CNC(=O)c2cccnc2Oc2ccc3c(c2)OCO3)c(F)c1)C(=O)O")
"false (0)"
>>> answer_label("CC(=C(CCOC(=O)C(C)C)SSC(CCOC(=O)C(C)C)=C(C)N(C=O)Cc1cnc(C)nc1N)N(C=O)Cc1cnc(C)nc1N")
"false (0)"
>>> answer_label("COc1cc(NS(=O)(=O)c2ccc(N)cc2)nc(OC)n1")
"false (0)"
>>> answer_label("CC(=O)OC(C)OC(=O)C(C)c1ccc(-c2ccccc2)c(F)c1 (stereo not drawn)")
"false (0)"
>>> answer_label("CN(C)C(=O)CNC(=O)Cc1ccccc1")
"false (0)"
>>> answer_label("CCN(C)C(=O)Oc1cccc([C@H](C)N(C)C)c1")
"false (0)"
>>> answer_label("COc1ccc2c(c1)C(=O)N(CCc1ccc(S(=O)(=O)NC(=O)NC3CCCCC3)cc1)C(=O)C2(C)C")
"false (0)"
>>> answer_label("CC1(C)S[C@@H]2[C@H](N=CN3CCCCCC3)C(=O)N2[C@H]1C(=O)O")
"true (1)"
>>> answer_label("C=CCCCCCCCCCCCC")
"false (0)"
>>> answer_label("C=C(C)C(=O)OCCOP(=O)(O)OCCOC(=O)C(=C)C")
"false (0)"
>>> answer_label("CCOCCOCCOCC")
"false (0)"
